Values from PubChem BioAssay AID1159580

Listed below: normalized growth values for each entry.
experiment-notes: chemical genetic growth profiling, strain panel (AID 1159580);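 further: tested at 20 µM; growth read once vehicle control cultures reached saturation at 30 °C; 1 = growth at the plate median or of vehicle wells; lower values mean less growth of the strain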
setup-conditions: S. cerevisiae deletion strains, growth OD, locus YNL307C, strain MCK1, active compounds read low
In all, about 5,500 compounds went through this assay and about 2,000 (36%) were called active. About 18% were inconclusive and are not listed. This is one part of the list.
outcome-measure: normalized growth

1) COc1ccc(-c2coc3c(OC)c(O)ccc3c2=O)cc1 : 0.896 (active)
2) c1ccc(CC2=NCCN2)cc1 : 0.877 (active)
3) COc1ccc(-c2coc3c(O)c(OC)ccc3c2=O)cc1 : 0.595 (active)
4) Cc1c(N(C)C)c(=O)n(-c2ccccc2)n1C : 0.996 (inactive)
5) COc1ccc(-c2coc3c(OC)c(OC)cc(O)c3c2=O)cc1 : 0.903 (active)
6) Cc1cc(=O)c2c(O)cc(O)c(C)c2o1 : 0.956 (inactive)
7) CC(C)N(C(=O)CCl)c1ccccc1 : 0.981 (inactive)
8) OCC(O)Cc1ccc2c(c1)OCO2 (configuration not stated) : 0.999 (inactive)
9) O=C(O)C1C(O)CCC2CN3CCc4c([nH]c5ccccc45)C3CC21 (configuration not stated) : 1.02 (inactive)
10) COC(=O)COc1cc(Cl)c(Cl)cc1Cl : 0.855 (active)
11) CCc1cccc(C)c1N(C(=O)CCl)C(C)COC (configuration not stated) : 1.02 (inactive)
12) COC(=O)c1c(Cl)c(Cl)c(C(=O)OC)c(Cl)c1Cl : 0.998 (inactive)
13) COc1c(CC=C(C)C)c2c(c3oc(=O)c(-c4ccc(OC(C)=O)cc4)c(OC(C)=O)c13)C=CC(C)(C)O2 : 1 (inactive)
14) Cc1c(O)cc(O)c2c(=O)c(-c3ccc(O)cc3)coc12 : 1.01 (inactive)
15) CN=C(NC#N)NCCSCc1nc[nH]c1C : 0.996 (inactive)
16) COC(=O)[C@H]1[C@H]2C[C@H]3c4[nH]c5ccccc5c4CCN3C[C@H]2CC[C@@H]1O : 1.01 (inactive)
17) CC(C)CC1C(=O)N2CCC[C@H]2C2(O)O[C@](NC(=O)C3C=C4c5cccc6[nH]c(Br)c(c56)C[C@H]4N(C)C3)(C(C)C)C(=O)N12 (some centres not stated) : 0.981 (inactive)
18) CNc1ccccc1C(=O)N1CCc2c([nH]c3ccccc23)C1=O : 0.985 (inactive)
19) CO[C@H]1C[C@H](O[C@H]2[C@H](C)[C@@H](OC3O[C@H](C)C[C@H](N(C)C)[C@H]3O)[C@@H](C)C[C@]3(CO3)C(=O)[C@H](C)[C@@H](O)[C@@H](C)[C@@H](C)OC(=O)[C@@H]2C)O[C@@H](C)[C@@H]1O (some centres not stated) : 0.982 (inactive)
20) C=C(C)/C=C1/C=CC(=O)C(C)=C1 : 0.0748 (active)
21) COc1ccc(-c2c(O)c3cc4c(c(CC=C(C)C)c3oc2=O)OC(C)(C)CC4)cc1 : 1.02 (inactive)
22) c1ccc(CN(CC2=NCCN2)c2ccccc2)cc1 : 1 (inactive)

====

experiment-notes: chemical genetic growth profiling, strain panel (AID 1159580);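 further: tested at 20 µM; growth read once vehicle control cultures reached saturation at 30 °C; 1 = growth at the plate median or of vehicle wells; lower values mean less growth of the strain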
setup-conditions: S. cerevisiae deletion strains, growth OD, locus YLR027C, strain aat2, active compounds read low
The whole screen tested about 5,500 compounds, of which about 2,000 (36%) were called active. About 18% were inconclusive and are not listed. The list shows a part of the results.
outcome-measure: normalized growth

1) C[C@@H]1O[C@@H](O[C@H]2[C@@H](Oc3cc(O)c4c(c3)O[C@H](c3ccc(O)cc3)CC4=O)O[C@H](CO)[C@@H](O)[C@@H]2O)[C@H](O)[C@H](O)[C@H]1O : 0.967 (inactive)
2) O=C1C[C@@H](c2ccc(O)cc2)Oc2cc(O)cc(O)c21 : 0.982 (inactive)
3) COc1ccc(C2CC(=O)c3ccc(OC)cc3O2)cc1 (stereo not given) : 0.93 (inactive)
4) O=C1CC(c2ccc(O)c(O)c2)Oc2cc(O)cc(O)c21 (stereo not given) : 1.01 (inactive)
5) CC(C)=CCc1c(O)cc2oc(C)cc(=O)c2c1O : 0.983 (inactive)

====

Listed below: normalized growth values for each entry.
experiment-notes: chemical genetic growth profiling, strain panel (AID 1159580);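 further: tested at 20 µM; growth read once vehicle control cultures reached saturation at 30 °C; 1 = growth at the plate median or of vehicle wells; lower values mean less growth of the strain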
setup-conditions: S. cerevisiae deletion strains, growth OD, locus YDL074C, strain BRE1, active compounds read low
The whole screen tested about 5,500 compounds, of which about 2,000 (36%) were called active. Roughly 18% stayed inconclusive and do not appear here. This is one part of the list.
outcome-measure: normalized growth

1. COc1ccc(-c2coc3c(OC)c(OC)ccc3c2=O)cc1 : 0.917
2. COc1ccc(-c2coc3c(OC)c(OC)cc(OC)c3c2=O)cc1 : 0.961
3. CCCCOc1ccc(OCCCN2CCOCC2)cc1 : 0.841
4. CCCCOc1ccc(C(=O)CCN2CCCCC2)cc1 : 0.5
5. COC(=O)COc1cc(Cl)c(Cl)cc1Cl : 0.943
6. COc1ccc2cc1Oc1ccc(cc1)C[C@H]1c3cc(c(OC)cc3CCN1C)Oc1c(OC)c(OC)cc3c1[C@H](C2)N(C)CC3 : 0.972
7. COc1ccc(-c2coc3c(OC)c(OC)cc(O)c3c2=O)cc1 : 0.924
8. CC(=O)O[C@H]1C(=O)[C@@]2(C)C([C@H](OC(=O)c3ccccc3)[C@]3(O)C[C@H](OC(=O)[C@H](O)[C@@H](NC(=O)c4ccccc4)c4ccccc4)C(C)=C1C3(C)C)[C@]1(OC(C)=O)CO[C@@H]1C[C@@H]2O (stereo not given in full) : 1.05
9. OC(CCN1CCCCC1)(c1ccccc1)c1ccccc1 : 1.03
10. Cc1ccc(C(=O)C(C)CN2CCCCC2)cc1 (stereo not given) : 1.01

====

experiment-notes: chemical genetic growth profiling, strain panel (AID 1159580);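 further: tested at 20 µM; growth read once vehicle control cultures reached saturation at 30 °C; 1 = growth at the plate median or of vehicle wells; lower values mean less growth of the strain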
setup-conditions: S. cerevisiae deletion strains, growth OD, locus YNL153C, strain GIM3, active compounds read low
Among all 5,500 compounds or so, about 2,000 (36%) were called active. Another 18% or so got no clear call; they are omitted. The list shows a part of the results.
Listed below: normalized growth values for each entry.
outcome-measure: normalized growth

1. N=c1nc(N2CCCCC2)cc(N)n1O : 1.01 (inactive)
2. CNc1ccccc1C(=O)N1CCc2c([nH]c3ccccc23)C1=O : 1.01 (inactive)
3. O=C(O)COc1cc(Cl)c(Cl)cc1Cl : 1 (inactive)
4. CC(=O)O[C@]1(C(C)=O)CCC2C3C[C@H](C)C4=CC(=O)CC[C@]4(C)C3CC[C@@]21C (some centres undefined) : 0.983 (inactive)
5. CC(=O)[C@H]1CCC2C3C[C@H](C)C4=CC(=O)CC[C@]4(C)C3[C@@H](O)C[C@@]21C (some centres undefined) : 0.997 (inactive)
6. CCCCCC(C)N (centres undefined) : 1.01 (inactive)
7. CCSC(=N)N : 1.03 (inactive)
8. COc1c(CC=C(C)C)c2c(c3oc(=O)c(-c4ccc(OC(C)=O)cc4)c(OC(C)=O)c13)C=CC(C)(C)O2 : 1.03 (inactive)
9. Cc1cc(C(C)(C)CC(C)(C)C)ccc1OCCOCC[N+](C)(C)Cc1ccccc1 : 0.0542 (active)
10. CC(=O)OCc1ccc(/C=C(\C#N)S(=O)(=O)c2ccc(Cl)cc2)o1 : 1.03 (inactive)
11. CCC(C(=O)O)c1ccccc1 (centres undefined) : 1 (inactive)
12. N#Cc1cnn(-c2ccccc2)c1-n1cccc1 : 0.994 (inactive)
13. CCN(CC)C(=S)SSC(=S)N(CC)CC : 0.0777 (active)
14. COC(=O)C1[C@H]2C[C@H]3c4[nH]c5ccccc5c4CCN3C[C@@H]2CC[C@@H]1O (some centres undefined) : 1.01 (inactive)
15. COc1cc(OC)c2c(c1)O[C@H](c1ccc(OC)c(OC)c1)[C@@H](O)C2 : 1.03 (inactive)
16. Nc1cc(-c2ccc(Cl)cc2)nc(N)n1 : 0.992 (inactive)
17. Cc1cc(C)c2c(-n3cccc3)c(C(=O)c3ccc(Cl)cc3)sc2n1 : 0.984 (inactive)
18. C=CC1=C(C(=O)O)N2C(=O)[C@@H](NC(=O)/C(=N/O)c3csc(N)n3)[C@H]2SC1 : 1 (inactive)
19. COc1ccc2c(c1)OC[C@@H](Cc1ccc(OC)c(OC)c1)[C@H]2O : 1.03 (inactive)
20. O=[N+]([O-])c1cc(C(F)(F)F)ccc1N1CCN(CCO)CC1 : 0.99 (inactive)
21. COc1ccc(-c2c(O)c3cc4c(c(CC=C(C)C)c3oc2=O)OC(C)(C)CC4)cc1 : 1 (inactive)
22. CCC1(C)CC(=O)NC1=O (centres undefined) : 1.01 (inactive)
23. c1ccc2cc(CC3=NCCN3)ccc2c1 : 0.982 (inactive)
24. C[CH2][Hg][S]c1ccccc1C(=O)O : 0.0483 (active)
25. CC(C)(C)OC(=O)N1CCC(C(N)=O)CC1 : 1.01 (inactive)
26. NC(=O)c1ncn([C@@H]2O[C@H](CO)[C@@H](O)[C@H]2O)c1O : 0.995 (inactive)
27. CCc1nc(N)nc(N)c1-c1ccc(Cl)cc1 : 1.01 (inactive)
28. COc1ccc2c(c1)OC[C@@H](Cc1ccc(OC)c(OC)c1)[C@@H]2O : 1.01 (inactive)
29. CCc1ccc(CCOc2ccc(CC3SC(=O)NC3=O)cc2)nc1 (centres undefined) : 1 (inactive)
30. CC1(O)/C=C/C=C(\CO)C2CC(C)(C)C2(O)CC1 (centres undefined) : 1.02 (inactive)
31. O=C(c1ccccc1)C1CCN(c2ccc(C(F)(F)F)cc2[N+](=O)[O-])CC1 : 0.991 (inactive)
32. CN(C)C=Nc1nc2c(s1)CCc1ccccc1-2 : 0.968 (inactive)
33. NC(=O)N1c2ccccc2CC(=O)c2ccccc21 : 1.02 (inactive)
34. OCCN(CCO)c1nc(N2CCCCC2)c2nc(N(CCO)CCO)nc(N3CCCCC3)c2n1 : 0.968 (inactive)
35. CC(=O)Nc1cccc(-n2nnc(SCc3ccccc3)n2)c1 : 1.02 (inactive)
36. Nc1nc2[nH]c(=O)c(=O)[nH]c2c(=O)[nH]1 : 1.01 (inactive)
37. O=c1[nH]c2ccccc2c2ccccc12 : 0.779 (active)
38. C[C@H]1OC[C@@H](C[N+](C)(C)C)O1 : 1.02 (inactive)
39. Nc1nc(Cl)nc2c1ncn2[C@@H]1O[C@H](CO)[C@H](O)C1O (some centres undefined) : 1.04 (inactive)
40. CC1CCN=C(N)S1 (centres undefined) : 0.947 (inactive)
41. c1ccc(CC2=NCCN2)cc1 : 0.987 (inactive)
42. Cc1cc(NC(=O)C(Cl)(Cl)Cl)n(-c2ccccc2)n1 : 1 (inactive)
43. Cc1cc(=O)n2c(-c3ccc(Cl)cc3)csc2n1 : 0.973 (inactive)
44. Cc1c(Cl)cccc1SCC(=O)O : 0.942 (inactive)
45. COC(=O)[C@@H]1C(O)CC[C@H]2CN3CCc4c([nH]c5ccccc45)[C@@H]3C[C@@H]21 (some centres undefined) : 1.01 (inactive)
46. CCOC(=O)COc1ccc2c(c1)OC(C)(C)CC2=O : 0.966 (inactive)
47. O=C(/C=C/C=C/c1ccc2c(c1)OCO2)N1CCCCC1 : 0.953 (inactive)
48. CSC(=N)N : 1.01 (inactive)
49. CCCCCCCc1c(O)c2ccccc2[nH]c1=O : 1.01 (inactive)
